Each recorded value in this set is attributed to PubChem BioAssay (NCI).

system: NCI-H522 lung; assay: NCI tumour cell line growth inhibition, 48 h
endpoint: TGI

Example entries begin here.
{"molecule": "CCOC(=O)c1c(N2CCOCC2)[nH]c(=O)c(C(c2ccc(N(C)C)cc2)c2c(O)c(C(=O)OCC)c(N3CCOCC3)[nH]c2=O)c1O", "measuredValue": "> 100 µM"}
{"molecule": "O=C(CN1C(=O)c2ccccc2C1=O)OC1C=CCCC1 (stereo not given)", "measuredValue": "> 100 µM"}
{"molecule": "COC(=O)C1=C(O)C(C(=O)OC)[C@@]2(O)[C@@H](C(=O)OC)C(c3ccc(OC(=O)/C(=C/c4ccccc4)c4ccccc4)cc3)C[C@@H]1[C@@H]2C(=O)OC (stereo not given in full)", "measuredValue": "> 100 µM"}
{"molecule": "Nc1nc(SCCC/C=C/B(O)O)nc2c1ncn2C1OC(CO)C(O)C1O (stereo not given)", "measuredValue": "> 243 µM"}
{"molecule": "CCCC(=O)C(CC)/C(CCC(=O)N(Cc1ccccc1)Cc1ccccc1)=N/NC(=O)C[N+](C)(C)C (stereo not given)", "measuredValue": "> 100 µM"}

Entry `Cc1ccc2c(c1)C(=O)C1(C2)Cc2ccc(C)cc2C1=O` has what TGI?
> 100 µM

Query `CC(C)c1cccc2sc(NC(=O)C(=O)CC(=O)c3ccc(F)cc3)nc12` next
> 100 µM

Query `CC(C)(C)c1cc2c(OP(c3ccccc3)c3ccccc3)c(c1)Cc1cc(C(C)(C)C)cc(c1OP(c1ccccc1)c1ccccc1)Cc1cc(C(C)(C)C)cc(c1OP(c1ccccc1)c1ccccc1)Cc1cc(C(C)(C)C)cc(c1OP(c1ccccc1)c1ccccc1)C2` next
> 50 µM

Query O=C(Nc1ccccc1)N1CC(CN2CCN(c3ccccc3)CC2)OC1=O (stereo not given) next
> 100 µM

Query `CCOC(=O)c1c(SCC#N)n(-c2ccccc2)c(=S)n(-c2ccccc2)c1=O` next
> 100 µM

Query `C[n+]1ccccc1/C=C/c1ccc2c(c1)OCO2` next
> 10 µM

Query N#CC1(C#N)C(c2ccccc2)NC23CCCCC2C1(C#N)C(=O)N3 (stereo not given) next
> 100 µM

Query `CCOc1ccc2c(-c3ccnc(Nc4cccc(C(F)(F)F)c4)n3)cnn2n1` next
> 23.1 µM

Query `COc1cc([N+](=O)[O-])c(S(=O)(=O)O)cc1-n1nc(-c2ccccc2)n[n+]1-c1cc(S(=O)(=O)[O-])c([N+](=O)[O-])cc1OC` next
> 100 µM

----------
tested on: UACC-257 melanoma; test: NCI tumour cell line growth inhibition, 48 h
Would you please tag the item YES when its TGI is 4 µM or above, and NO when it is below?

Consider the worked cases shown below.
{"compound": "c1ccc(CN2CCC3(CC2)ONC2=NCCN23)cc1", "classLabel": "YES"}
{"compound": "COc1ccc(/C=C/c2cc(=O)cc(/C=C/c3ccc(OC)c(O)c3)o2)cc1O", "classLabel": "NO"}
{"compound": "CC(=O)O[C@H]1CC[C@]2(C)[C@H]3C(=O)C=C4[C@@H]5C[C@](C)(C(=O)N6CCCNCC6)CC[C@]5(C)CC[C@@]4(C)[C@]3(C)CC[C@H]2C1(C)C", "classLabel": "YES"}
{"compound": "CN1CCN(c2ccc(NC3=C(Cl)C(=O)c4ncccc4C3=O)cc2C(F)(F)F)CC1", "classLabel": "NO"}
{"compound": "O=c1c2ccccc2c(C=NCCNCCO)c2oc3ccccc3n12", "classLabel": "YES"}
{"compound": "CC(C)NCCCNC1=C(Cl)C(=O)c2ccccc2C1=O", "classLabel": "NO"}

For this compound, is measured TGI 4 µM or higher? c1ccc(SCCP(CCP(c2ccccc2)c2ccccc2)c2ccccc2)cc1 (stereo unspecified)
YES

Query `COc1cc2c3c(n(CCCn4cccn4)c(=O)c2cc1OC)-c1cc2c(cc1C3=O)OCO2` next
YES

Query COc1cc2c(cc1OC)C(C1(O)CCCCC1)NCC2 (stereo unspecified) next
YES

Query C1CSCCSS[C@@H]2CCCCC2SC1 (stereo partly specified) next
YES

Query `CN(C)c1ccc2c(SCC(=O)OCC(=O)[C@@]3(O)CC[C@H]4[C@@H]5CCC6=CC(=O)C=C[C@]6(C)[C@H]5C(=O)C[C@@]43C)c3ccc(N(C)C)cc3nc2c1` next
YES

----------
TGI values for the compounds below.
test system: SNB-75 CNS; experiment: NCI tumour cell line growth inhibition, 48 h
Write down the numeric answer in µM and omit the unit.

{"compound": "COc1cc([C@@H]2c3cc4c(cc3[C@@H](NC(=O)c3ccc(C(C)=O)cc3)C3COC(=O)[C@@H]32)OCO4)cc(OC)c1O (some centres undefined)", "measuredValue": 4.99}

From here, focus on the item given below.
Request: TGI, test system SNB-75 CNS, entry CCCCCCCCCCCCCC/C(=C/OCC[N+](C)(C)C)OC(C)=O (tested in a mixture with another compound)
7.3

----------
system: SF-539 CNS; experiment: NCI tumour cell line growth inhibition, 48 h
TGI values for the compounds below.

Example entries begin here.
{"compound": "NC(=O)c1nnc2cc(F)c(F)cc2c1N", "TGI": "> 100 µM"}
{"compound": "O=C(O)C1(C(=O)O)CCN(S(=O)(=O)c2ccccc2)CC1", "TGI": "> 100 µM"}

Request: TGI, test system SF-539 CNS, entry `COc1ccc(Oc2nc3cc(C(F)(F)F)ccc3nc2C(C)C)cc1`
> 100 µM

Query CC(=O)C1C(=O)C(=O)N(c2ccc(Cl)cc2C)C1=O (configuration not stated) next
> 100 µM

Query `Cc1cc(Cl)ccc1OCC(=O)Oc1c(Cl)c(Cl)c(Cl)c(Cl)c1Cl` next
> 100 µM

----------
test system: MOLT-4 leukemia; assay: NCI tumour cell line growth inhibition, 48 h
GI50 values for the compounds below.

{"compound": "COc1ncnc2c1ncn2C/C(Br)=C(\\Br)CCl", "GI50": "2910 nM"}
{"compound": "C=C(C)[C@@H]1CC[C@]2(c3ncc(C)o3)CC[C@]3(C)[C@H](CC[C@@H]4[C@@](C)(CCC#N)[C@H](C(=C)C)CC[C@]43C)[C@@H]12", "GI50": "2850 nM"}
{"compound": "CCCCn1c(=O)c(/C=C/C(=O)/C=C/c2ccc(O)c(OC)c2)cc2ccc(Cl)cc21", "GI50": "2170 nM"}
{"compound": "CN1CCN(c2ccc(NC3=C(Cl)C(=O)c4ncccc4C3=O)cc2C(F)(F)F)CC1", "GI50": "304 nM"}
{"compound": "COc1ccccc1NC(=O)N/C(N)=N/c1nc2ccccc2s1", "GI50": "162 nM"}
{"compound": "CC(=O)[CH-]C(=O)c1ccccc1.CC(=O)[CH-]C(=O)c1ccccc1.CC(C)CCCC(C)[C@H]1CCC2[C@@H]3CCC4C[C@@H]([O-])CC[C@]4(C)C3CC[C@@]21C.CC(C)CCCC(C)[C@H]1CCC2[C@@H]3CCC4C[C@@H]([O-])CC[C@]4(C)C3CC[C@@]21C.Cl.[Ti+4] (stereo partly drawn)", "GI50": "> 25000 nM"}

Entry `O=c1cc(-c2ccccc2)oc2cc(OCc3cn(Cc4ccc(F)cc4)nn3)cc(O)c12` has what GI50?
> 100000 nM

Query `O=C(Oc1ccccc1Cl)c1cccnc1Nc1ccnc(C(F)(F)F)c1` next
2520 nM

----------
system: MDA-MB-231 breast; experiment: NCI tumour cell line growth inhibition, 48 h
TGI values for the molecules below.

{"molecule": "COc1cccc(NC(=O)c2c(SC)n[nH]c2N)c1", "TGI": "> 100 µM"}
{"molecule": "Cc1c2ccccc2nc2[nH]c3ccncc3c12", "TGI": "> 100 µM"}
{"molecule": "CNC(=S)N/N=C(\\C)c1ccc(OC)cc1O", "TGI": "> 100 µM"}

Request: TGI, test system MDA-MB-231 breast, entry `Nc1nonc1-c1noc(-c2nonc2N)[n+]1[O-]`
> 100 µM

Query `CC(C)(C)OC(=O)N(CCCn1c2c(c3ccccc3c1=O)C(=O)c1ccccc1-2)CCN(CCCn1c2c(c3ccccc3c1=O)C(=O)c1ccccc1-2)C(=O)OC(C)(C)C` next
> 50 µM

Query CCCCCCCCCCCCCCCCCCNc1ccn(C2OC(COP(=O)(O)OCCCCCCCCCCCCCCCC)C(O)C2O)c(=O)n1 (stereo unspecified) next
> 100 µM

Query `N=c1nc(N)nc(N)n1-c1ccc(S(N)(=O)=O)cc1` next
> 100 µM

Query `Oc1ccc2ccccc2c1N=Nc1ccc(N=Nc2ccccc2)cc1` next
> 100 µM

----------
test system: RXF-631 renal; assay: NCI tumour cell line growth inhibition, 48 h
endpoint: TGI

Example entries begin here.
{"molecule": "[O-]c1c(-c2ccccc2)[se]c(-c2ccccc2)[n+]1-c1ccccc1", "target": "RXF-631 renal", "endpoint": "TGI", "measuredValue": "29.9 µM"}
{"molecule": "NC(N)=NS(=O)(=O)c1ccc(NC(=O)c2ccc(Cl)c3c(Nc4ccc(S(=O)(=O)N=C(N)N)cc4)c4ccccc4nc23)cc1", "target": "RXF-631 renal", "endpoint": "TGI", "measuredValue": "> 100 µM"}
{"molecule": "CN(C)CCNc1ccc2nnn3c4ccc(Cl)cc4c(=O)c1c23", "target": "RXF-631 renal", "endpoint": "TGI", "measuredValue": "16.4 µM"}
{"molecule": "CC(C)[C@H](COC(C)(C)C)N=CN1CSc2ccccc21", "target": "RXF-631 renal", "endpoint": "TGI", "measuredValue": "> 100 µM"}

Entry CC(=O)C1C(=O)C(=O)N(c2ccc(Cl)cc2C)C1=O (stereo not given) has what TGI?
> 100 µM
